The measured values listed here are drawn from ChEMBL document CHEMBL4118047.

# System: HEK293
# method: Cytotoxicity against HEK293 cells assessed as reduction in cell viability after 24 hrs by resazurin dye based assay
# condition-notes: Homo sapiens, HEK293, 24 h
test-readout: IC50 (µM)
Please state the figure in µM; there is no need to write the unit.

Recorded IC50 for `C=C(C)C(=O)O[C@H]1C/C(C)=C\C(=O)C[C@@]2(C)O[C@H]2[C@H]2OC(=O)C(COC(C)=O)=C12` on HEK293 was 23.8

Recorded IC50 for `C=C(C)C(=O)O[C@H]1C/C(C)=C\C(=O)/C=C(\C)[C@@H](O)[C@@H]2OC(=O)C(COC(C)=O)=C12` on HEK293 was 56

Recorded IC50 for `C=C(C)C(=O)O[C@H]1C/C(C)=C\C(=O)/C=C(C)/C=C2/OC(=O)C(COC(C)=O)=C21` on HEK293 was 3.5

Recorded IC50 for `C=C(C)C(=O)O[C@@H]1C/C(C)=C\[C@@]2(O)C=C(C)[C@H](O2)[C@H]2OC(=O)C(COC(C)=O)=C12` on HEK293 was 58.8
